experiment: Phase I study CXR1002-001: plasma pharmacokinetics (LC-MS/MS); type: in vivo, human; settings: human, plasma, po, 1000 mg, Patient 041, 1000 mg weekly oral dose, Time 674 hr; read-out: Concentration (plasma level)
READOUT NAME: concentration at 674 hr (µM)
Write the number in µM without appending the unit.

Which concentration at 674 hr is reported for this compound? O=C(O)C(F)(F)C(F)(F)C(F)(F)C(F)(F)C(F)(F)C(F)(F)C(F)(F)F
546

----------
test: Phase I study CXR1002-001: plasma pharmacokinetics (LC-MS/MS); type: in vivo, human; conditions: human, plasma, po, 1000 mg, Patient 041, 1000 mg weekly oral dose, Time 840 hr (Day 36); read-out: Concentration (plasma level)
READOUT NAME: concentration at 840 hr (µM)
Write the number in µM without appending the unit.

Which concentration at 840 hr is reported for this compound? O=C(O)C(F)(F)C(F)(F)C(F)(F)C(F)(F)C(F)(F)C(F)(F)C(F)(F)F [CXR1002]
715

From: patent US20130029928A1
